For each record, write down the corresponding cytotoxicity at 70.5 h.
- test.method.notes: Human HepG2 cell viability assay in 384 well format
- Format: toxicity, cell-based
- Set-up: dose 125 nL, time 70.5 hour; concentration not given beside the values
- settings: HepG2 cells, read-out: Inhibition
Returns: string containing the number followed by the unit.

// query Give its cytotoxicity at 70.5 h value. Item: Cc1nc(CN2CCCC(N(C)Cc3cnc(C)s3)C2)no1 (stereo unspecified)
// result -1.22%

// query Fill blank: measured cytotoxicity at 70.5 h of the molecule CCc1nc(C)c(C(=O)NCCNc2ncnc3sccc23)s1 is ____.
// result 4.06%

// query Value lookup for cytotoxicity at 70.5 h; key = NC(=O)CN(Cc1ccc(Br)cc1)C(=O)c1ccccn1
// result -4.46%

// query What value of cytotoxicity at 70.5 h has been reported for the following molecule? CC1CCCN(CCNC(=O)c2ccn(-c3cccc(F)c3)n2)C1 (stereo unspecified)
// result 1.27%

// query Param item = CCN(Cc1ccncc1)C1CCCN(Cc2ccc(F)cc2OC)C1 (stereo unspecified) ; retrieve measured cytotoxicity at 70.5 h.
// result -1.99%

// query Any idea what its cytotoxicity at 70.5 h is? The molecule is COC(=O)CNC(=O)c1nc(Br)sc1C(C)C
// result 42.9%

// query Return reported cytotoxicity at 70.5 h; argument: O=C(NCc1cncc2c1CCN(C1CCOCC1)C2)c1ccno1
// result -7.6%

// query Reported cytotoxicity at 70.5 h for O=C(c1cccn1Cc1cccs1)N1CCCC1Cn1cccn1 (stereo unspecified) : what is it?
// result -20.8%

// query Could you tell me which cytotoxicity at 70.5 h is on file for CC(NC(=O)c1cccnc1N(C)C)c1ccccc1Cl (stereo unspecified) ?
// result -9.9%

// query Item CC(C)c1noc(-c2ccc(NCCCC3CCOC3)nc2)n1 (stereo unspecified) has what recorded cytotoxicity at 70.5 h?
// result -0.0541%

// query # lookup: cytotoxicity at 70.5 h of COCC(NC1CCSCC1)c1ccnn1C (stereo unspecified)
// result 21.8%

// query What does the data say about its cytotoxicity at 70.5 h? Entry: CCCn1nc(C)c(CNS(=O)(=O)NCc2ccccc2)c1C
// result -12.7%

// query Could you share which cytotoxicity at 70.5 h value was measured for CCn1cnc(NC(=O)NCC2CCS(=O)(=O)CC2)n1 ?
// result -19.4%

// query Bench note: what cytotoxicity at 70.5 h did CN1C(=O)CCC12CCN(S(=O)(=O)c1ccccc1)CC2 show?
// result -13.4%

// query Endpoint output: cytotoxicity at 70.5 h of Cc1cc(C)nc(-n2nc(C)c3c2NC(=O)CSC3c2cnn(C)c2)n1 (stereo unspecified) . Value?
// result -31.4%

// query Please report the recorded cytotoxicity at 70.5 h for CC(C)[C@H](N)c1nnc(SCC(=O)Nc2ccc(Br)cc2)o1 .
// result -4.97%

// query So what does the record say about cytotoxicity at 70.5 h for O=C(NCCn1ccnc1)c1cc(Br)c[nH]1 ?
// result -8.18%

// query Given CC(=O)NCCNC(=O)c1sc(-c2ccc(Cl)s2)nc1C , state its recorded cytotoxicity at 70.5 h.
// result 28.8%

// query Fill in: cytotoxicity at 70.5 h of CN(C)c1ccc(C2CCN(c3cnccn3)CC2)nc1 is ___
// result 6.87%

// query For CCCS(=O)(=O)N1CCC2(CC(C(=O)NCc3cccnc3)=NO2)C1 (stereo unspecified) , what is its reported cytotoxicity at 70.5 h?
// result -10.3%

// query # lookup: cytotoxicity at 70.5 h of CN1CC(=O)N(c2cccc(F)c2)CC12CCN(CC1CCOCC1)C2 (stereo unspecified)
// result 5.35%

// query # cytotoxicity at 70.5 h lookup, item O=C(Cn1ccc2ccc(Cl)cc21)NCc1ccc(C(=O)O)cc1
// result -2.47%

// query Entry Cc1ccsc1[C@@H]1CCN(C(=O)CCc2n[nH]c(C)c2C)C[C@H]1O has what cytotoxicity at 70.5 h?
// result 0.289%

// query Reported cytotoxicity at 70.5 h, molecule Clc1ccccc1-c1nc(CNC2CCc3ncnn3C2)cs1 (stereo unspecified) : ____
// result -1.51%

// query Which cytotoxicity at 70.5 h is reported for this molecule? Cc1ccc(C(=O)NC2CCN(C(=O)NCc3ccccn3)CC2)o1
// result -8.93%

// query Form field: reported cytotoxicity at 70.5 h of NCC1Cc2cc(F)cc(-c3cnccn3)c2O1 (stereo unspecified)
// result -3.38%

// query Would you mind telling me what cytotoxicity at 70.5 h value was observed for CC(C)c1cc(C(=O)N2CCc3ccccc3C2C(=O)O)nn1C (stereo unspecified) ?
// result -1.42%

// query Look at this molecule and give its reported cytotoxicity at 70.5 h. COc1cc(NC(=O)N2CCCC2c2nncn2C)ccc1Br (stereo unspecified)
// result -4.18%

// query Which cytotoxicity at 70.5 h value is on record for CC(C)Sc1ncccc1C(=O)NCc1ccc(O)cc1 ?
// result -2.85%

// query Form field: reported cytotoxicity at 70.5 h of CNC(=O)Cn1ccc2ccc(NC(=O)C(C)C)cc21
// result -16.4%

// query // cytotoxicity at 70.5 h lookup, key: N#CC1(C(=O)N2CCCN(Cc3cscn3)CC2)CCCCC1
// result 0.606%

// query Quick one: cytotoxicity at 70.5 h for COCCN1C(=O)[C@H]2CC[C@@H]1CN(Cc1nnc(-c3ccccc3)o1)C2 ?
// result -4.89%

// query Dear colleague, I am looking for the recorded cytotoxicity at 70.5 h of the following molecule: O=C(c1ccn(COc2ccc(F)cc2)n1)N1CCCC1
// result -7.86%

// query Need cytotoxicity at 70.5 h, item Cc1ccc2cccc(C(=O)NCC3CCN(C(C)C)C3)c2n1 (stereo unspecified)
// result 12%

// query May I ask what cytotoxicity at 70.5 h has been recorded for CCCc1nc(N[C@H]2COC[C@@H]2N2CCCC2)c2cnn(C)c2n1 ?
// result -7.83%

// query Requested read-out: cytotoxicity at 70.5 h. Entry: CN(C)C(=O)CC1CC2(CCN(CC3CC3)CC2)c2cc(F)ccc21 (stereo unspecified)
// result 35.7%

// query Using the record for Cc1ccc2nc(CN3CCCCC3C(=O)N3CCOCC3)cn2c1 (stereo unspecified) , report its cytotoxicity at 70.5 h.
// result 7.36%

// query Data request, read-out cytotoxicity at 70.5 h, for CCNc1nc(-c2cccnc2)c(-c2ccnc(NS(C)(=O)=O)n2)s1
// result -8.33%

// query For the molecule Cc1noc(C)c1CNC(=O)NCCOc1ccc(F)cc1F , what cytotoxicity at 70.5 h is on record?
// result -3.02%

// query Requested field: cytotoxicity at 70.5 h. Item: CC(C)N(C)C(=O)C1CSCN1S(=O)(=O)c1cc(Cl)ccc1Cl (stereo unspecified)
// result 11.9%

// query Item under review: CN(C)C1CCCN(C(=O)NCCC(=O)N2CCCCCC2)C1 (stereo unspecified) . Reported cytotoxicity at 70.5 h?
// result 0.671%

----------
- test.method.notes: Human HepG2 cell viability assay in 384 well format
- Format: toxicity, cell-based
- Design: dose 125 nL, time 70.5 hour; concentration not given beside the values
- settings: HepG2 cells, read-out: Inhibition
assay.metric: cytotoxicity at 70.5 h (%)
Give the value, in units of %, as a plain number.

// query Field request: cytotoxicity at 70.5 h | item: CC(=O)N1CCN(c2cnnc(N3CCCC3)c2)CC1
// result -1.26

// query What does the data say about its cytotoxicity at 70.5 h? Entry: CCOc1ncccc1NC(=O)c1cc2c(s1)CCC2
// result 1.84

// query Would you kindly share the measured cytotoxicity at 70.5 h for CCNc1cc2c(nn1)CCN(C(=O)CC1CCCC1)C2 ?
// result -5.46

// query For Cc1nn(C)c2cnn(CC(=O)NCc3ccccc3F)c12 , what is its reported cytotoxicity at 70.5 h?
// result -8.04

// query Consider the compound CN(Cc1ccc(F)cc1)CC1(O)CCN(C(=O)c2ccncc2)C1 (stereo not drawn) and give its measured cytotoxicity at 70.5 h.
// result -5.43

// query What does the data say about its cytotoxicity at 70.5 h? Entry: Cc1ccc(CN2CCC3(CC2)OC(C(=O)N(C)C)c2ccccc23)o1 (stereo not drawn)
// result -13.3

// query Would you kindly share the measured cytotoxicity at 70.5 h for CC1c2ncc(Cn3cncn3)n2CCN1C(=O)c1ccsc1 (stereo not drawn) ?
// result -4.72

// query What cytotoxicity at 70.5 h value was documented for this compound, Cc1cnc(C(=O)N2Cc3ccccc3OC3(CCOCC3)C2)cn1 ?
// result 1.74

// query Recorded cytotoxicity at 70.5 h of CC(C)CN1C(=O)CO[C@@H]2CNC[C@H]21 , please.
// result -10.3

// query Returns the measured cytotoxicity at 70.5 h for the input compound. Input: CN1CCN(Cc2cn3c(n2)CN(C(=O)N2CCOCC2)CC3)CC1
// result -3.86

// query Would you mind telling me what cytotoxicity at 70.5 h value was observed for Cc1ccc(S(=O)(=O)N2CCC3(CC(C(=O)NCC4CC4)=NO3)C2)cc1 (stereo not drawn) ?
// result -8.09

// query Consider the compound O=C(NCc1nn(-c2ccccc2)c2c1CCC2)NC1CC1 and give its measured cytotoxicity at 70.5 h.
// result -19

// query Reported cytotoxicity at 70.5 h, compound Cc1cc(O)cc(=O)n1CCCC(=O)Nc1n[nH]c2cc(Br)ccc12 : ____
// result -13.4

// query Any idea what its cytotoxicity at 70.5 h is? The compound is Cc1ccc2nnc(C(=O)NCC3CCCC3)nc2c1
// result -0.847

// query cytotoxicity at 70.5 h for CC1COCCN1C(=O)Nc1cnc2c(cnn2C(C)C)c1 (stereo not drawn) ?
// result -2.52

// query Request the reported cytotoxicity at 70.5 h associated with O=C1[C@H]2CC[C@H](CN(C3CSCCSC3)C2)N1Cc1cscn1
// result -7.49

// query If you can, please state the reported cytotoxicity at 70.5 h value of CCn1nc(C)cc1NC(=O)CCn1nc(C)c(Br)c1C .
// result 10.2

// query Request the reported cytotoxicity at 70.5 h associated with Cc1cc(C2CCCN(C(=O)c3c(C)nn4cccnc34)C2)n[nH]1 (stereo not drawn)
// result -3.82
